assay: Solubility measured at Scripps; type: physicochemical; settings: assay buffer, aqueous buffer; read-out: Solubility in assay buffer
MEASURED QUANTITY: solubility
Report the figure along with its unit, number first.

## Input If you can, please state the reported solubility value of CN(C(=O)CNC(=O)/C=C/c1cccc(Cl)c1)C1CCS(=O)(=O)CC1 .
## Output 35 µM

###

assay: Solubility measured at Scripps; assay type: physicochemical; conditions: PBS, aqueous buffer; read-out: Solubility in PBS
MEASURED QUANTITY: solubility (µM)
Quick note: give the figure in µM, leave out the unit.

## Input If you can, please state the reported solubility value of CN(C(=O)CNC(=O)/C=C/c1cccc(Cl)c1)C1CCS(=O)(=O)CC1 .
## Output 18.7

###

system: DLD-1 cell line; assay: DLD-1 cell viability; type: cell-based; settings: Homo sapiens, DLD1 (colon), viability
MEASURED QUANTITY: IC50
Report the figure along with its unit, number first.

## Input If you can, please state the reported IC50 value of CN(C(=O)CNC(=O)/C=C/c1cccc(Cl)c1)C1CCS(=O)(=O)CC1 [Compound 1] .
## Output 29 nM

###

tested on: SW-620 (colon); experiment: Tumor cell line potency, SW-620; type: cell-based; details: Homo sapiens; SW-620 (colon)
MEASURED QUANTITY: pIC50
Please keep in mind that pIC50 is minus log10 of the molar concentration; only the number is needed.

## Input Any idea what pIC50 came out for CN(C(=O)CNC(=O)/C=C/c1cccc(Cl)c1)C1CCS(=O)(=O)CC1 on SW-620 (colon)?
## Output 6.37
